Test system: Helminthosporium maydis
experiment: southern corn leaf blight control on corn seedlings
Assay type: in vivo
conditions: Bipolaris maydis, 168 h
experimentalReadout: pest or weed control at 100 ppm (%)
Response body: numeric value in %, unit text excluded.

Worked cases, answers included:
1. Clc1ccc([Si](Cn2ccnc2)(c2ccc(Cl)cc2)c2ccc(Cl)cc2)cc1 = 0
2. C[Si](C)(Cn1ccnc1)c1ccccc1-c1ccccc1 = 0
3. C[Si](Cn1ccnc1)(c1ccc(-c2ccccc2)cc1)c1ccc(-c2ccccc2)cc1 = 0

**Q:** I have this compound here, C[Si](Cn1ccnc1)(c1ccc(Cl)cc1)c1ccccc1Cl (centres unmarked) , and I need its recorded pest or weed control at 100 ppm.
**A:** 0

**Q:** I have this compound here, C[Si](Cn1ccnc1)(c1ccc(Cl)cc1)c1ccc(Cl)cc1 , and I need its recorded pest or weed control at 100 ppm.
**A:** 60

**Q:** I have this compound here, COc1cccc([Si](C)(C)Cn2ccnc2)c1OC , and I need its recorded pest or weed control at 100 ppm.
**A:** 0

**Q:** I have this compound here, C[Si](C)(Cn1ccnc1)c1cccc(C(F)(F)F)c1 , and I need its recorded pest or weed control at 100 ppm.
**A:** 0

**Q:** I have this compound here, COc1ccc([Si](C)(Cn2ccnc2)c2ccc(OC)cc2)cc1 , and I need its recorded pest or weed control at 100 ppm.
**A:** 0

**Q:** I have this compound here, C[Si](Cn1ccnc1)(c1ccccc1)c1ccc(-c2ccccc2)cc1 (centres unmarked) , and I need its recorded pest or weed control at 100 ppm.
**A:** 80

**Q:** I have this compound here, C[Si](C)(Cn1ccnc1)c1ccc(S(C)(=O)=O)cc1 , and I need its recorded pest or weed control at 100 ppm.
**A:** 0

**Q:** I have this compound here, CCCC[Si](C)(Cn1ccnc1)c1ccc(Cl)cc1 (centres unmarked) , and I need its recorded pest or weed control at 100 ppm.
**A:** 50
